Target Of Assay: T1, rat PTH-1R (rat PTHR endogenously expressed on UMR-106 rat osteosarcoma cells) (rat, UniProt P25961 27-591)
T1 sequence (looked up): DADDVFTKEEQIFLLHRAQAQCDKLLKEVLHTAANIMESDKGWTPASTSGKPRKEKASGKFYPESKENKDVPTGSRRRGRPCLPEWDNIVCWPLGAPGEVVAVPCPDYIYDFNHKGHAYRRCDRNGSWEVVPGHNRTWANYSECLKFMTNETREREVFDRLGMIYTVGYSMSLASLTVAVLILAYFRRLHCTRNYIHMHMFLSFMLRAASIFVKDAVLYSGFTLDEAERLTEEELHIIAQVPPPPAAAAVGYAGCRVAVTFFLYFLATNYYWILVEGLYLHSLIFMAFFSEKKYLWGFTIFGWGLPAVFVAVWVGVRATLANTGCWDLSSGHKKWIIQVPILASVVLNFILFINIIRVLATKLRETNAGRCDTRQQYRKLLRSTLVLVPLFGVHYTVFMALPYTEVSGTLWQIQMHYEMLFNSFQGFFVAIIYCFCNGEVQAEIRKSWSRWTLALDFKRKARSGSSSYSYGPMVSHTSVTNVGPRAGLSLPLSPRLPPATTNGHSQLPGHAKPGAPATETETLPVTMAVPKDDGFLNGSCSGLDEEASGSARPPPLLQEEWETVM
Test Name: cell-based or functional assay
*1 amine or outer side, *2 acyl side, *3 side chain or, on linkers, in order; H or OH if unused. Where no end group is shown, it is not given here. [ ]: non-standard residue; d: D form. αMe‑APPA = 2-amino-2-methyl-5-phenylpentanoic acid, C[C@@](CCCc1ccccc1)(N[*:1])C(=O)[*:2]; Bip(2'-Et-4'-OMe) = CCc1cc(OC)ccc1-c1ccc(C[C@H](N)C(=O)O)cc1; Arg(NO2) = N=C(NCCC[C@H](N)C(=O)O)N[N+](=O)[O-]; αMePhe(2,6-F2) = C[C@](N)(Cc1c(F)cccc1F)C(=O)O; αMePhe(2-F) = C[C@](N)(Cc1ccccc1F)C(=O)O; αMeNle = CCCC[C@](C)(N[*:1])C(=O)[*:2]; hhPhe = N[C@@H](CCCc1ccccc1)C(=O)O; hArg = N=C(N)NCCCC[C@H](N)C(=O)O; Cit = NC(=O)NCCC[C@H](N)C(=O)O; Nle = CCCC[C@H](N)C(=O)O; Orn = NCCC[C@H](N)C(=O)O; Ac5c = NC1(C(=O)O)CCCC1; Ac3c = NC1(C(=O)O)CC1; Aib = CC(C)(N)C(=O)O
Readout Kind: cAMP released with respect to control, 100 nM peptide, UMR-106 cells

| Binder | Experimental Value |
| --- | --- |
| [Aib]V[Aib]EIQ[αMePhe(2,6-F2)][Nle]HQ[Cit]A[Arg(NO2)][αMePhe(2-F)] [Seq. ID. 397] | 117 percent of control |
| [Ac5c]V[Aib]EIQL[Nle]HQ[hArg]A[Cit][Bip(2'-Et-4'-OMe)][hhPhe] [Seq. ID. 733] | 110 percent of control |
| [Ac5c]V[Aib]EIQ[αMePhe(2,6-F2)][Nle]HQ[Orn]A[Aib][αMePhe(2,6-F2)] [Seq. ID. 311] | 86 percent of control |
| [Aib]V[Ac5c]EIQ[αMePhe(2,6-F2)][Nle]HQ[hArg][Aib][Cit][αMePhe(2,6-F2)] [Seq. ID. 156] | 106 percent of control |
| V[Ac5c]V[Aib]EIQL[αMeNle]HQ[hArg]A[hArg][Bip(2'-Et-4'-OMe)][αMe‑APPA] [Seq. ID. 925] | 52 percent of control |
| [Ac3c]V[Aib]EIQ[αMePhe(2,6-F2)][Nle]HQ[hArg]A[Arg(NO2)][Bip(2'-Et-4'-OMe)][hhPhe] [Seq. ID. 694] | 80 percent of control |
| V[Ac3c]V[Aib]EIQL[αMeNle]HQ[hArg]A[hArg][αMePhe(2-F)][αMe‑APPA] [Seq. ID. 935] | 117 percent of control |
| [Ac5c]V[Aib]EIQL[Nle]HQ[αMePhe(2,6-F2)]A[Aib][Bip(2'-Et-4'-OMe)][hhPhe] [Seq. ID. 799] | 106 percent of control |
| SVSEIQLMHNLGKHLNSMERVEWLRKKLQDVHNF [PTH (1-34)] | 100 percent of control |
| [Aib]V[Aib]EIQ[αMePhe(2-F)][Nle]HQ[αMePhe(2,6-F2)][Aib][αMePhe(2,6-F2)][αMePhe(2,6-F2)] [Seq. ID. 514] | 80 percent of control |
